Compiled from multiple publications: pKi readings for Carbonic anhydrase 1 (Homo sapiens, UniProt P00915).
// field semantics: pKi = negative decimal log of concentration (mol/L)

Use the examples below as a reference point.
NCC(=O)NCC(=O)Nc1ccc(S(N)(=O)=O)cc1Cl    6.26
COc1c2c(c3ccc(=O)oc3c1/C=C/C(C)(C)O)OC(C)(C)C=C2    5.07
CC(=O)N1N=C(c2ccc(OS(N)(=O)=O)cc2)CC1c1ccc(Cl)cc1Cl (stereo unspecified)    5.43
COc1cc(C(=O)Nc2nnc(S(N)(=O)=O)s2)cc(OC)c1OC    6.05
Cn1nc(S(N)(=O)=O)s/c1=N/C(=O)CN(CCN(CCN(CC(=O)O)CC(=O)O)CC(=O)O)CC(=O)O    7.21
NS(=O)(=O)c1ccc(Nc2nc(Cl)nc(NC(CO)C(=O)O)n2)cc1 (racemic)    6.96
CCc1cc(-c2ccccc2)cc(CC)[n+]1CC(=O)OCCOc1ccc2nc(S(N)(=O)=O)sc2c1    8.00
Nc1c(C(=O)N/N=C/c2ccc(O)cc2)cnn1-c1ccc(S(N)(=O)=O)cc1    6.87
NS(=O)(=O)c1ccc(CC/N=C(\S)Nc2ccc(S(=O)(=O)NCc3ccc(S(N)(=O)=O)cc3)cc2)cc1    8.43
Cc1cc(S(N)(=O)=O)c(S/C(=N\Nc2ccc([N+](=O)[O-])cc2)c2ccccc2)cc1Cl    3.42

Prompt: // lookup pKi | system=Carbonic anhydrase 1 (Homo sapiens, UniProt P00915) | key= CN(C)c1ccc(C(=O)O)cc1
Response: 5.40

Prompt: // lookup pKi | system=Carbonic anhydrase 1 (Homo sapiens, UniProt P00915) | key= CC(=O)OC[C@H]1O[C@@H](SNCc2ccc(S(N)(=O)=O)cc2)[C@H](OC(C)=O)[C@@H](OC(C)=O)[C@@H]1OC(C)=O
Response: 5.38

Prompt: // lookup pKi | system=Carbonic anhydrase 1 (Homo sapiens, UniProt P00915) | key= NS(=O)(=O)c1ccc(CNC(=O)CNCC(=O)O)cc1
Response: 5.44

Prompt: // lookup pKi | system=Carbonic anhydrase 1 (Homo sapiens, UniProt P00915) | key= O=S(=O)(NO)c1ccc(I)cc1
Response: 4.82

Prompt: // lookup pKi | system=Carbonic anhydrase 1 (Homo sapiens, UniProt P00915) | key= O=C1Nc2ccc(Cl)cc2S(=O)(=O)N1
Response: 5.73

Prompt: // lookup pKi | system=Carbonic anhydrase 1 (Homo sapiens, UniProt P00915) | key= CC(=O)OC[C@H]1O[C@@H](NC(=S)NCc2ccc(S(N)(=O)=O)cc2)[C@H](OC(C)=O)[C@@H](OC(C)=O)[C@H]1OC(C)=O
Response: 5.20

Prompt: // lookup pKi | system=Carbonic anhydrase 1 (Homo sapiens, UniProt P00915) | key= CC(=O)OC[C@H]1O[C@@H](O[C@H]2[C@H](OC(C)=O)[C@@H](OC(C)=O)[C@H](NC(=S)NNC(=O)c3ccc(S(N)(=O)=O)cc3)O[C@@H]2COC(C)=O)[C@H](OC(C)=O)[C@@H](OC(C)=O)[C@H]1OC(C)=O
Response: 5.23

Prompt: // lookup pKi | system=Carbonic anhydrase 1 (Homo sapiens, UniProt P00915) | key= C[C@H](CCC(=O)NCCC(=O)Nc1nnc(S(N)(=O)=O)s1)[C@H]1CC[C@H]2[C@@H]3[C@H](O)C[C@@H]4C[C@H](O)CC[C@]4(C)[C@H]3CC[C@]12C
Response: 6.57

Prompt: // lookup pKi | system=Carbonic anhydrase 1 (Homo sapiens, UniProt P00915) | key= NC(=O)CC[C@H](NC(=S)Nc1ccc(S(N)(=O)=O)cc1)C(=O)O
Response: 7.40

Prompt: // lookup pKi | system=Carbonic anhydrase 1 (Homo sapiens, UniProt P00915) | key= NS(=O)(=O)c1ccc(NC(=O)/C(Cl)=N/Nc2ccccc2)cc1
Response: 6.64

Prompt: // lookup pKi | system=Carbonic anhydrase 1 (Homo sapiens, UniProt P00915) | key= C[C@H](CCC(=O)Oc1ccc2nc(S(N)(=O)=O)sc2c1)[C@H]1CC[C@H]2[C@@H]3C(=O)C[C@@H]4CC(=O)CC[C@]4(C)[C@H]3CC(=O)[C@]12C
Response: 7.48

Prompt: // lookup pKi | system=Carbonic anhydrase 1 (Homo sapiens, UniProt P00915) | key= O=[N+]([O-])c1ccccc1S(=O)(=O)Nc1n[nH]c(=S)s1
Response: 3.52

Prompt: // lookup pKi | system=Carbonic anhydrase 1 (Homo sapiens, UniProt P00915) | key= NS(=O)(=O)c1nnc(NC(=O)CCCCC(F)(F)C(F)(F)F)s1
Response: 6.60

Prompt: // lookup pKi | system=Carbonic anhydrase 1 (Homo sapiens, UniProt P00915) | key= CCN1CCN(C(=S)SCC(=O)Nc2nc3ccc(S(N)(=O)=O)cc3s2)CC1
Response: 7.25

Prompt: // lookup pKi | system=Carbonic anhydrase 1 (Homo sapiens, UniProt P00915) | key= C[C@H](CCC(=O)/N=c1/sc(S(N)(=O)=O)nn1C)[C@H]1CC[C@H]2[C@@H]3[C@H](O)C[C@@H]4C[C@H](O)CC[C@]4(C)[C@H]3C[C@H](O)[C@]12C
Response: 6.15

Prompt: // lookup pKi | system=Carbonic anhydrase 1 (Homo sapiens, UniProt P00915) | key= Cn1nc(S(N)(=O)=O)s/c1=N/C(=O)CN(CCN(CCN(CC(=O)O)CC(=O)/N=c1/sc(S(N)(=O)=O)nn1C)CC(=O)O)CC(=O)O
Response: 7.27

Prompt: // lookup pKi | system=Carbonic anhydrase 1 (Homo sapiens, UniProt P00915) | key= COC(=O)[C@H]1O[C@@H](SNCc2ccc(S(N)(=O)=O)cc2)[C@H](OC(C)=O)[C@@H](OC(C)=O)[C@H]1OC(C)=O
Response: 6.96

---

Compiled from multiple publications: log10(Ki) readings for Carbonic anhydrase 1 (Homo sapiens, UniProt P00915).
Annotation: log10 of Ki, nM basis.

Use the examples below as a reference point.
NCCCC(=O)Nc1ccc(S(N)(=O)=O)cc1Cl    2.75
NS(=O)(=O)c1ccc(-n2nc(-c3ccncc3)ccc2=O)cc1    2.36
CC(C)C(C(=O)NO)N(Cc1ccccc1)S(=O)(=O)C(F)(F)C(F)(F)C(F)(F)C(F)(F)F (configuration not stated)    2.15

Prompt: Need log10(Ki), item NS(=O)(=O)c1ccc(-n2nc(-c3ccccc3O)ccc2=O)cc1
Response: 1.92

---

Compiled from multiple publications: pKi readings for Carbonic anhydrase 1 (Homo sapiens).
// field semantics: pKi = negative decimal log of concentration (mol/L)

CC(=O)N1N=C(c2ccc(C)cc2)CC1c1cccc(OS(N)(=O)=O)c1 (stereo not given)    5.81
CN1CCN(C(=S)SCC(=O)Nc2nc3ccc(S(N)(=O)=O)cc3s2)CC1    7.68
C[C@H](CCC(=O)Oc1ccc2nc(S(N)(=O)=O)sc2c1)[C@H]1CC[C@H]2[C@@H]3[C@H](O)C[C@@H]4C[C@H](O)CC[C@]4(C)[C@H]3C[C@H](O)[C@]12C    7.49
C[C@H](CCC(=O)NCc1ccc(S(N)(=O)=O)cc1)[C@H]1CC[C@H]2[C@@H]3[C@@H](O)C[C@@H]4C[C@H](O)CC[C@]4(C)[C@H]3CC[C@]12C    6.26
NS(=O)(=O)c1ccc(C[Se]c2ccc(NC(=O)CN3C(=O)NC4(CCCCCC4)C3=O)cc2)cc1    6.42
NS(=O)(=O)c1ccc(NC(=O)CSC(=S)N2CCOCC2)cc1    7.14
Nc1ccc2c(c1)B(O)OC2    5.03
COc1ccc2[nH]c(-c3ccc(S(N)(=O)=O)cc3)cc2c1    5.58

Prompt: // lookup pKi | system=Carbonic anhydrase 1 (Homo sapiens) | key= NS(=O)(=O)c1ccc(NC(=O)CN(CCN(CCN(CC(=O)O)CC(=O)O)CC(=O)O)CC(=O)O)c(Br)c1
Response: 7.02

Prompt: // lookup pKi | system=Carbonic anhydrase 1 (Homo sapiens) | key= NS(=O)(=O)c1ccc(NNC(=O)CN(CCOCCOCCN(CC(=O)O)CC(=O)O)CC(=O)O)cc1
Response: 4.90

Prompt: // lookup pKi | system=Carbonic anhydrase 1 (Homo sapiens) | key= CC1(C)O[C@@H]2[C@@H](CO[C@@]3(COC(=O)NS(N)(=O)=O)OC(C)(C)O[C@@H]23)O1
Response: 6.38

Prompt: // lookup pKi | system=Carbonic anhydrase 1 (Homo sapiens) | key= O=C(/C=C/c1ccc(O)c(O)c1)OCCc1cccc(OCCc2cccc(O)c2)c1
Response: 5.02

Prompt: // lookup pKi | system=Carbonic anhydrase 1 (Homo sapiens) | key= CCCCCN(CCCCC)CC(=O)N(CCc1ccc(S(N)(=O)=O)cc1)Cc1ccccc1
Response: 6.30

Prompt: // lookup pKi | system=Carbonic anhydrase 1 (Homo sapiens) | key= CC(=O)OC[C@H]1O[C@@H]([Se]c2ccc(NC(=O)c3ccc(S(N)(=O)=O)cc3)cc2)[C@H](OC(C)=O)[C@@H](OC(C)=O)[C@H]1OC(C)=O
Response: 7.29

Prompt: // lookup pKi | system=Carbonic anhydrase 1 (Homo sapiens) | key= Cc1nnc(-c2cc(S(N)(=O)=O)c(Cl)cc2Cl)o1
Response: 6.14

Prompt: // lookup pKi | system=Carbonic anhydrase 1 (Homo sapiens) | key= NS(=O)(=O)c1ccc(-c2ccc(Cc3ccc([N+](=O)[O-])cc3)cc2)cc1
Response: 7.15
